Molecular target: T1, CD19 (UniProt P15391 20-556, limits assumed)
T1 sequence (looked up): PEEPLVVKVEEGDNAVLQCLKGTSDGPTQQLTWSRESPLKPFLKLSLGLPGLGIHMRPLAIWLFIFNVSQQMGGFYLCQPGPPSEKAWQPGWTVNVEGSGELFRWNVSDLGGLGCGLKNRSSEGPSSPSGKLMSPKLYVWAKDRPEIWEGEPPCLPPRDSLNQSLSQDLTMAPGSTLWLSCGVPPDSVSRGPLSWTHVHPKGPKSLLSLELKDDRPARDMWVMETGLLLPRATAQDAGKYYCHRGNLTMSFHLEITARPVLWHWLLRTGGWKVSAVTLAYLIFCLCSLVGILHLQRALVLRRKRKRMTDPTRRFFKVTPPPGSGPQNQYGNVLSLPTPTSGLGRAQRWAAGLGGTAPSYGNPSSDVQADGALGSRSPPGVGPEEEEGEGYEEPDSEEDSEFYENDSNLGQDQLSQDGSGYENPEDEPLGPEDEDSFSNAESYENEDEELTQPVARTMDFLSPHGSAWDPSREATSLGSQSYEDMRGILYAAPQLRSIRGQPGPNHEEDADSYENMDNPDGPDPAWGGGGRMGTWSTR
Experiment: cell-based or functional assay
observable: EC50 of cytotoxicity (LDH), sCAR-T cells + switch vs CD19+ RS4;11, assay DTR-5-50 (PBMC) (pM)
The reply should contain only the number, in pM.

Kindly indicate its recorded EC50 of cytotoxicity (LDH), sCAR-T cells + switch vs CD19+ RS4;11, assay DTR-5-50 (PBMC). Item: hFMCL2b(V44L)/H4c(Q1E)-WT (antibody, V domains shown) VH: EVQLQESGPGLVKPSETLSVTCTVSGVSLPDYGVSWIRQPPGKGLEWLGVIWGSETTYYNSALKSRLTISKDNSKNQVSLKMSSLTAADTAVYYCAKHYYYGGSYAMDYWGQGTLVTVSS VL: DIQMTQSPSSLSASVGDRVTITCRASQDISKYLNWYQQKPGKALKLLIYHTSRLHSGVPSRFSGSGSGTDYTLTISSLQPEDFATYFCQQGATLPYTFGQGTKLEIK 7.01

Kindly indicate its recorded EC50 of cytotoxicity (LDH), sCAR-T cells + switch vs CD19+ RS4;11, assay DTR-5-50 (PBMC). Item: hFMCL2b/H4b(Q1E)-WT (antibody, V domains shown) VH: EVQLQESGPGLVKPSETLSVTCTVSGVSLPDYGVSWIRQPPGKGLEWLGVIWGSETTYYNPSLKSRLTISKDNSKNQVSLKMSSLTAADTAVYYCAKHYYYGGSYAMDYWGQGTLVTVSS VL: DIQMTQSPSSLSASVGDRVTITCRASQDISKYLNWYQQKPGKAVKLLIYHTSRLHSGVPSRFSGSGSGTDYTLTISSLQPEDFATYFCQQGATLPYTFGQGTKLEIK 6.97

Kindly indicate its recorded EC50 of cytotoxicity (LDH), sCAR-T cells + switch vs CD19+ RS4;11, assay DTR-5-50 (PBMC). Item: hFMCL2b/H4b-x-(Q1E)-WT (antibody, V domains shown) VH: EVQLQESGPGLVKPSETLSLTCTVSGVSLPDYGVSWIRQPPGKGLEWIGVIWGSETTYYNPSLKSRVTISKDNSKNQFSLKLSSVTAADTAVYYCAKHYYYGGSYAMDYWGQGTLVTVSS VL: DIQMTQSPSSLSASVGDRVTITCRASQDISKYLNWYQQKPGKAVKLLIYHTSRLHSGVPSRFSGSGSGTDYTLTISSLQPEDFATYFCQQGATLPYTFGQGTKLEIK 43.8

Kindly indicate its recorded EC50 of cytotoxicity (LDH), sCAR-T cells + switch vs CD19+ RS4;11, assay DTR-5-50 (PBMC). Item: hFMCL2b/H4b(Q1E-V20L)-WT (antibody, V domains shown) VH: EVQLQESGPGLVKPSETLSLTCTVSGVSLPDYGVSWIRQPPGKGLEWLGVIWGSETTYYNPSLKSRLTISKDNSKNQVSLKMSSLTAADTAVYYCAKHYYYGGSYAMDYWGQGTLVTVSS VL: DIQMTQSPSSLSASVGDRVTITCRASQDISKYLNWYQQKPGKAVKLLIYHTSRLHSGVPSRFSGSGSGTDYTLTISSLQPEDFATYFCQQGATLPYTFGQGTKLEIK 7.48
